target: Calmodulin-1 (Homo sapiens); assay: small molecules binding Ca-loaded calmodulin-1 – biochemical, small-molecule microarray, Cy5-labelled CALM1, plus calcium, artefact control for SMM control-protein annotation, profiling panel (AID 1112); conditions: Cy5-CALM1 binding fluorescence, higher = more signal;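 further: score merges spot fluorescence with signal to noise from triplicate slides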
Here the recorded composite z-score is given for each entry.
Respond using a number only.

Look over these answered cases.
# compound, study-target, meas-value
rows = [
    ("CC1C=C(CCCO)C=C(C(=O)OCCS(C)(=O)=O)C(C(=O)OCCS(C)(=O)=O)=CN1Cc1cccc(OC(F)(F)F)c1 (stereo not drawn)", "Calmodulin-1 (Homo sapiens)", 1.09),
    ("COC(=O)C(CC#Cc1ccc2c(c1)[C@]1(C(=O)N2)[C@H](c2ccccc2OCCO)N2[C@H](c3ccccc3)[C@H](c3ccccc3)OC(=O)[C@H]2[C@@H]1C(=O)Nc1nc2ccccc2s1)C(=O)OC", "Calmodulin-1 (Homo sapiens)", -0.196),
]

Attention now turns to another entry.
// CC(C)C[C@H]1NC(=O)[C@H](C)NC(=O)[C@@]23C(=O)N[C@@H](Cc4ccccc4)C2[C@H](C)[C@@]2(C)O[C@H]2C3/C=C/C/C=C\CNC1=O (stereo partly drawn) : composite z-score value = -0.806

====

experiment: blockers of DNA damage checkpoint Chk1 activation – imaging, HeLa, hydroxyurea, phospho-Chk1 nuclear intensity, primary screen (AID 1187); details: hydroxyurea-induced phospho-Chk1 immunofluorescence imaging, higher = more signal; further: test concentration not given here
Here the recorded z-score is given for each entry.
Respond using a number only.

Look over these answered cases.
# compound, z-score
measured = [
    ("CCCC=C(CCC)[C@@H](NS(=O)(=O)CC)c1ccccc1", 0.408),
    ("COc1ccc(C#Cc2ccc3c(c2)[C@]2(C(=O)N3)[C@H](C(=O)O)[C@H]3C(=O)O[C@H](c4ccccc4)[C@H](c4ccccc4)N3[C@@H]2c2ccc(OCCO)cc2)cc1", 0.862),
    ("CC(C)c1ccc(NN2C(C(O)c3ccccn3)C=CC3C(=O)N(c4ccccc4)C(=O)C32)cc1 (stereo not given)", 0.375),
    ("O=C1OCC=C[C@H]2OC34C=CCN(CCN5CCOCC5)C(=O)[C@H]3N(CCCCCO)C(=O)[C@@H]4[C@@H]12 (stereo not given in full)", -0.209),
]

// CCN(CC)c1ccc(N2CC=CC34O[C@@H]5/C=C\CCCOC(=O)C5[C@H]3C(=O)N(CCCCCCO)[C@@H]4C2=O)cc1 (stereo not given in full) : z-score value = 1.02

// `O=C(Nc1cc(Br)ccc1C(=O)NCc1cccc(O)c1)c1ccccc1` : z-score value = -0.27

// `O=C1c2ccccc2[C@](Cc2ccccc2I)(C(=O)NCC(F)(F)F)[C@H](c2ccc(CO)cc2)N1Cc1ccccc1` : z-score value = -0.634

// CC(C)C(CO)N1C(=O)[C@@H]2[C@H]3C(=O)OCC=C[C@H]3OC23C=CCN(Cn2nnc4ccccc42)C(=O)[C@@H]13 (stereo not given in full) : z-score value = 0.11

// `COCCCNC(=O)[C@@]1(Cc2ccccc2I)c2ccccc2C(=O)N(Cc2ccccc2Cl)[C@H]1c1ccc(CO)cc1` : z-score value = 0.187

// `NC(=O)NCC#Cc1ccc2c(c1)[C@]1(C(=O)N2)[C@H](c2ccc(O)cc2)N2[C@H](c3ccccc3)[C@H](c3ccccc3)OC(=O)[C@H]2[C@@H]1C(=O)NC[C@H](O)c1ccccc1` : z-score value = -0.151
